The compounds below each have a reported IC50 tested on Fibroblast growth factor receptor 2 (Homo sapiens, UniProt P21802); the values come from various publications.

For COc1cc(OC)c(F)c(-c2ncc3c(-c4ccc(OCCN(C)C)cc4)n[nH]c3n2)c1F the compound record lists IC50 as < 100 nM

For COCCNc1cc(NC(=O)N(C)c2ccc(-c3cnn(C)c3)c(C=O)n2)ncc1C#N the compound record lists IC50 as > 10000 nM

For COc1cc(OC)c(F)c(-c2cc3[nH]nc(-c4cc5c(cc4F)C(=O)N(C(C)C)C5)c3cn2)c1F the compound record lists IC50 as < 100 nM

For COc1cc(OC)c(Cl)c(-c2cc3[nH]nc(-c4ccc(C(O)C(=O)N(C)C)c(F)c4)c3cn2)c1Cl (centres unmarked) the compound record lists IC50 as < 100 nM

For COc1cc(OC)c(F)c(N2Cc3cnc(N)c(-c4ccccc4)c3N(C)C2=O)c1F the compound record lists IC50 as < 100 nM

For Cn1cc(-c2ccn3c(-c4cc(NCC(C)(C)O)nc(-c5ccc(F)cc5F)c4)cnc3c2)cn1 the compound record lists IC50 as 4.92 nM

For COc1cc(OC)c(Cl)c(-c2cc3[nH]nc(-c4ccc5c(c4)CN(C4CC4)C5=O)c3cn2)c1Cl the compound record lists IC50 as < 100 nM

For COc1ccc(C#Cc2n[nH]c3nc(-c4c(F)c(OC)cc(OC)c4F)ncc23)cc1 the compound record lists IC50 as < 100 nM
